The origin of these recorded values is patent US20200399712A1.

# System: HPV-16
# test.summary: qPCR sensitivity against HPV-HNSCC tumor samples diluted among 10 ng normal human DNA
# applied.conditions: 32 HPV-HNSCC tumor samples, 6.6 pg DNA
Label TRUE when sensitivity under single cells is at or above 20%; otherwise label FALSE.

[[record]]
molecule = "BR E1-6: HPV-16 E1 region primer/probe set, SEQ ID NO: 43-45 (nucleic acid, chemistry not given here) DNA 1: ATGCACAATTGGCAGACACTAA DNA 2: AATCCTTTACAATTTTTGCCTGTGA DNA 3: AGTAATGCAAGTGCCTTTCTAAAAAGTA"
cat = "FALSE"

[[record]]
molecule = "E7: previously designed (historical) HPV-16 E7 primers and Taqman probe, SEQ ID NO: 10-12; part of CLIA test (nucleic acid, Taqman probe, labels not given here, part of CLIA test) DNA 1: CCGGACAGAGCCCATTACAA DNA 2: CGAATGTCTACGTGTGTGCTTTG DNA 3: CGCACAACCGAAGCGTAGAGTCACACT"
cat = "FALSE"

[[record]]
molecule = "BR E1-4: HPV-16 E1 region primer/probe set, SEQ ID NO: 37-39 (nucleic acid, chemistry not given here) DNA 1: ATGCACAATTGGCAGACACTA DNA 2: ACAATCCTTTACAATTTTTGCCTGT DNA 3: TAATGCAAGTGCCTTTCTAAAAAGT"
cat = "TRUE"

[[record]]
molecule = "BR E6-1: HPV-16 E6 region (172-373 bp) primer/probe set, SEQ ID NO: 58-60 (nucleic acid, chemistry not given here) DNA 1: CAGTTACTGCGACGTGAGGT DNA 2: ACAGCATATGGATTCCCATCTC DNA 3: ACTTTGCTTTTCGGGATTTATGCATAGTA"
cat = "FALSE"

[[record]]
molecule = "HR E5L2-4: primer/probe set for junction between E5 and L2, SEQ ID NO: 55-57 (same as SEQ ID NO: 4-6) (nucleic acid, chemistry not given here) DNA 1: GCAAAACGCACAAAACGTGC DNA 2: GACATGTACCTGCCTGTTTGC DNA 3: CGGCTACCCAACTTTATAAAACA"
cat = "FALSE"

[[record]]
molecule = "BR E1-5: HPV-16 E1 region primer/probe set, SEQ ID NO: 40-42 (same as SEQ ID NO: 1-3) (nucleic acid, chemistry not given here) DNA 1: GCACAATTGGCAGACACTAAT DNA 2: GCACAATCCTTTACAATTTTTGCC DNA 3: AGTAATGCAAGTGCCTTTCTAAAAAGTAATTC"
cat = "TRUE"

[[record]]
molecule = "E6: previously designed (historical) HPV-16 E6 primers and Taqman probe, SEQ ID NO: 7-9, positive control (nucleic acid, Taqman probe, labels not given here) DNA 1: TCAGGACCCACAGGAGCG DNA 2: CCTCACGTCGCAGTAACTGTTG DNA 3: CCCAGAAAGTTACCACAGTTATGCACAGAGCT"
cat = "FALSE"

